# System: Pseudomonas aeruginosa Bin H No. 1
# Type: cell-based
# test parameters: Bin H No. 1, pH 7
Square brackets hold non-standard residues; d marks the D form. Peptide text beside a SMILES is read from it. * marks the point of attachment. Stearoyl = CCCCCCCCCCCCCCCCCC(=O)*; 12Ado = NCCCCCCCCCCCC(=O)O; Aun = NCCCCCCCCCCC(=O)O; Ahp = NCCCCCCC(=O)O; Butyryl = CCCC(=O)*; Ava = NCCCCC(=O)O; GABA = NCCCC(=O)O
parameter: MIC (µg/ml) PA (µg/mL)
Please respond with the number in µg/mL and leave the unit unwritten.

Example cases with answers are listed next.
[Q] Item under review: CCCCCCCCCCCCCCCCCC(=O)N[C@@H](CC(C)C)C(=O)N[C@@H](Cc1ccc(O)cc1)C(=O)N[C@@H](CCCNC(=N)N)C(=O)N[C@@H](CCCCN)C(=O)N[C@@H](CCSC)C(=O)N[C@@H](CCCNC(=N)N)C(=O)N[C@@H](CC(C)C)C(=O)N[C@@H](CCCNC(=N)N)C(=O)N[C@@H](Cc1ccc(O)cc1)C(=O)N1CCC[C@H]1C(=O)N[C@H](C(=O)NCCCCCCCCCCCC(N)=O)C(C)C [Compound (I-8)] (Stearoyl-LYRKMRLRYPV[12Ado]-NH2) . Reported MIC (µg/ml) PA?
[A] 106

[Q] Query CCCC(=O)N[C@@H](CC(C)C)C(=O)N[C@@H](Cc1ccc(O)cc1)C(=O)N[C@@H](CCCNC(=N)N)C(=O)N[C@@H](CCCCN)C(=O)N[C@@H](CCSC)C(=O)N[C@@H](CCCNC(=N)N)C(=O)N[C@@H](CC(C)C)C(=O)N[C@@H](CCCNC(=N)N)C(=O)N[C@@H](Cc1ccc(O)cc1)C(=O)N1CCC[C@H]1C(=O)N[C@H](C(=O)NCCCCCCCCCCCC(N)=O)C(C)C [Compound (I-9)] (Butyryl-LYRKMRLRYPV[12Ado]-NH2) next
[A] 200

[Q] Query CSCC[C@H](NC(=O)[C@H](CCCCN)NC(=O)[C@H](CCCNC(=N)N)NC(=O)[C@H](Cc1ccc(O)cc1)NC(=O)[C@H](CC(C)C)NC(C)=O)C(=O)N[C@@H](CCCNC(=N)N)C(=O)N[C@@H](CC(C)C)C(=O)N[C@@H](CCCNC(=N)N)C(=O)N[C@@H](Cc1ccc(O)cc1)C(=O)N1CCC[C@H]1C(=O)N[C@H](C(=O)NCCCCC(N)=O)C(C)C [Compound (I-2)] (Ac-LYRKMRLRYPV[Ava]-NH2) next
[A] 77

[Q] Query CSCC[C@H](NC(=O)[C@H](CCCCN)NC(=O)[C@H](CCCNC(=N)N)NC(=O)[C@H](Cc1ccc(O)cc1)NC(=O)[C@H](CC(C)C)NC(C)=O)C(=O)N[C@@H](CCCNC(=N)N)C(=O)N[C@@H](CC(C)C)C(=O)N[C@@H](CCCNC(=N)N)C(=O)N[C@@H](Cc1ccc(O)cc1)C(=O)N1CCC[C@H]1C(=O)N[C@H](C(=O)NCCCCCCC(N)=O)C(C)C [Compound (I-4)] (Ac-LYRKMRLRYPV[Ahp]-NH2) next
[A] 129

Continuing:
[Q] Item under review: CSCC[C@H](NC(=O)[C@H](CCCCN)NC(=O)[C@H](CCCNC(=N)N)NC(=O)[C@H](Cc1ccc(O)cc1)NC(=O)[C@H](CC(C)C)NC(C)=O)C(=O)N[C@@H](CCCNC(=N)N)C(=O)N[C@@H](CC(C)C)C(=O)N[C@@H](CCCNC(=N)N)C(=O)N[C@@H](Cc1ccc(O)cc1)C(=O)N1CCC[C@H]1C(=O)N[C@H](C(=O)NCCCCCCCCCCC(N)=O)C(C)C [Compound (I-6)] (Ac-LYRKMRLRYPV[Aun]-NH2) . Reported MIC (µg/ml) PA?
[A] 85

[Q] Query CSCC[C@H](NC(=O)[C@H](CCCCN)NC(=O)[C@H](CCCNC(=N)N)NC(=O)[C@H](Cc1ccc(O)cc1)NC(=O)[C@H](CC(C)C)NC(C)=O)C(=O)N[C@@H](CCCNC(=N)N)C(=O)N[C@@H](CC(C)C)C(=O)N[C@@H](CCCNC(=N)N)C(=O)N[C@@H](Cc1ccc(O)cc1)C(=O)N1CCC[C@H]1C(=O)N[C@H](C(=O)NCCCC(N)=O)C(C)C [Compound (I-1)] (Ac-LYRKMRLRYPV[GABA]-NH2) next
[A] 167

Origin of measurements: patent EP0760376A1
